Kindly supply the reported TGI values for the records listed here.
tested on: RXF 393 renal; assay: NCI tumour cell line growth inhibition, 48 h

Quick check: TGI of "Cc1cccc2c(=O)c3c(sc12)c(NCCCN)nc1ccccc13" ? 2.87 µM

And CS(=O)(=O)c1ccc(C(=O)O[C@@H]2C(=O)N3CC[C@H]4OC(O)[C@@H]2[C@H]43)cc1 (some centres not stated) ? > 100 µM

And "COC(=O)c1ccc(Oc2nc3ccc(C(F)(F)F)cc3nc2-c2ccccc2)cc1" ? > 100 µM

And "CC1(C)C(CBr)=[N+]([O-])C(C)(C)N1O" ? 8.15 µM

And C/C(=N\N)C(CN1CCOCC1)C(c1ccccc1)c1c(O)c2ccccc2oc1=O (configuration not stated) ? > 51.9 µM

And "Fc1ccccc1-c1cc(=S)c2cc3c(cc2[nH]1)OCO3" ? > 100 µM

And "CCOc1ccc(Nc2ccnc3cc(Cl)ccc23)cc1" ? > 100 µM

And "CCCCCCCC(=O)Nc1nc2[nH]c(CN3CCN(Cc4cccc(I)c4)CC3)c(CN3CCN(Cc4cccc(I)c4)CC3)c2c(=O)[nH]1" ? 1.49 µM

And "N#Cc1c(N)c(C(=O)c2ccc3c(c2)OCCO3)n2c1CCCC2" ? 17.9 µM

And CC(C)CC(C#CCCOC(=O)c1ccccc1)OC(=O)c1ccccc1 (configuration not stated) ? > 10 µM

And COc1cccc(C2SC(C)C(=O)N2NC(=O)C(O)c2ccccc2)c1 (configuration not stated) ? > 100 µM

And "CC(C)(C)c1ccc(NS(=O)(=O)c2ccc(N)cc2)cc1" ? 94.1 µM

###

system: HOP-62 NSCLC; assay: NCI tumour cell line growth inhibition, 48 h
Kindly supply the reported TGI values for the records listed here.

Under HOP-62 NSCLC: TGI value of "O=C(NC1CCCCC1)NC12CC3CC(CC(F)(C3)C1)C2" ? > 100 µM

And "Cc1cc2[nH]c(=O)c3c4ncccc4cn3c2cc1C" ? 39.4 µM

And "NC1=Nc2ccccc2Sc2nccn21" ? 57.4 µM

And "CC(=O)NNc1ncc(C(=O)/C=C/c2ccccc2C)s1" ? > 100 µM

And "COc1ccc2[nH]c3c(c2c1)CCc1c(OC)cccc1-3" ? > 100 µM

And "CCc1cc2c(cc1C(=O)CCC(=O)O)CC1(C2)Cc2cc(CC)c(C(=O)CCC(=O)O)cc2C1" ? > 100 µM

###

system: SW-620 colon; test: NCI tumour cell line growth inhibition, 48 h
reported-metric: TGI

Quick check: TGI of CCCC(=O)Nc1cc(/C=C/C(=O)N2CC(CCl)c3ccc([N+](=O)[O-])cc32)n(C)c1 (stereo unspecified) ? > 100 µM

And "C[C@]12CC[C@@H]3c4ccc(O)cc4CC[C@H]3[C@@H]1CC(Cc1ccccc1)(Cc1ccccc1)C2=O" ? 30 µM

And "Fc1ccccc1-c1cc(=S)c2cc3c(cc2[nH]1)OCO3" ? > 100 µM

And "COc1ccc2nc(N/N=C/c3ccc(C)s3)cc(C)c2c1" ? > 100 µM

And "O=c1cccccc1O" ? > 100 µM

And COc1ccc(CC2Cc3ccccc3CC(=O)N2)cc1OC (stereo unspecified) ? > 100 µM
